The following compounds are shown together with reported MIC values.
Tested on: Streptococcus pneumoniae Park I
Experiment: MIC, standard agar-dilution assay
Format: cell-based
Conditions: Streptococcus pneumoniae
Experimental: Certain of the derivatives are active against some gram-negative bacteria, such as Pasteurella species. The MIC's in Table II were determined by standard agar-dilution assays. The MIC's in Table III were obtained using a conventional broth-dilution microtiter test.
Value expressed in µg/mL; do not type the unit.

- COMPOUND: "CCC1CC(C)C(=O)C=CC(C)=CC(CSc2ccccc2)C(CC)OC(=O)CC(O)C(C)C1OC1OC(C)C(O)C(N(C)C)C1O (stereo not shown)"
  TEST_RESULT: 0.12

stdin: Identify MIC associated with the compound CCC1OC(=O)CC(O)C(C)C(OC2OC(C)C(O)C(N(C)C)C2O)C(CCN(c2ccccc2)c2ccccc2)CC(C)C(=O)C=CC(C)=CC1CO (stereo not shown) [Compound 56, 20-Diphenylamino-20-deoxy-20-dihydro-OMT]
stdout: 1

stdin: Look up MIC of CCC1OC(=O)CC(O)C(C)C(OC2OC(C)C(O)C(N(C)C)C2O)C(CCOC(=O)Cc2ccccc2)CC(C)C(=O)C=CC(C)=CC1COC(=O)Cc1ccccc1 (stereo not shown) [Compound 30, 20,23-Di-O-Phenylacetyl-20-dihydro-OMT] and report it.
stdout: 0.12

stdin: Determine from records and report MIC for CCC1CC(C)C(=O)C=CC(C)=CC(COC(C)=O)C(CC)OC(=O)CC(O)C(C)C1OC1OC(C)C(OC(C)=O)C(N(C)C)C1OC(C)=O (stereo not shown)
stdout: 4
